Recorded pKd by entry
- TARGET OR TEST SYSTEM: T1, ARHGEF11, O15085
- T1 sequence (O15085 42-136, limits assumed, looked up): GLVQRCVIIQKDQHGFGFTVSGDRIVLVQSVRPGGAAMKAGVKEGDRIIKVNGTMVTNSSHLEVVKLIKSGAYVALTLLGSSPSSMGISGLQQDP
- TEST PROTOCOL: holdup assay
- Parameters: key: below the threshold = too weak to quantify, mostly under pKd 3.1 to 4
- COND: plain residues with an end cap or a label only (N-terminal biotin on a linker: ttds)
Answer with a bare number; do not write a unit.

Examples with their reported pKd follow.
{"BINDER": "FVETQHQTQV [FAT3, Q8TDW7]", "MEASURED METRIC": "pKd", "ENDPOINT RESULT": 4.22}
{"BINDER": "SRSRRRETAL [HPV33-E6, P06427]", "MEASURED METRIC": "pKd", "ENDPOINT RESULT": 4.25}
{"BINDER": "SHSSKGETAV [FZD7, O75084]", "MEASURED METRIC": "pKd", "ENDPOINT RESULT": 4.3}
{"BINDER": "SGGKRKETLV [NET1, Q7Z628]", "MEASURED METRIC": "pKd", "ENDPOINT RESULT": 4.23}

For the binder PPRQRSETQV [HPV82-E6, Q9IR59] , give its measured pKd value.
3.74

For the binder NPDALPETLV [ARHGAP6, O43182] , give its measured pKd value.
4.09
